Parameter: DC50. Scope: all listed entries.
# target_or_test_system: von Hippel-Lindau disease tumor suppressor/SWI/SNF-related matrix-associated actin-dependent regulator of chromatin subfamily A member 4 (Homo sapiens, UniProt P51532+P40337)
# assay_details: PROTAC activity at VHL/C-terminal HiBiT fused SMARCA4 in human HeLa cells assessed as induction of SMARCA4 degradation incubated for 24 hrs by Nano-Glo HiBiT analysis
# Format: cell-based
# Sequence (P51532 whole entry, the tested form may be a part): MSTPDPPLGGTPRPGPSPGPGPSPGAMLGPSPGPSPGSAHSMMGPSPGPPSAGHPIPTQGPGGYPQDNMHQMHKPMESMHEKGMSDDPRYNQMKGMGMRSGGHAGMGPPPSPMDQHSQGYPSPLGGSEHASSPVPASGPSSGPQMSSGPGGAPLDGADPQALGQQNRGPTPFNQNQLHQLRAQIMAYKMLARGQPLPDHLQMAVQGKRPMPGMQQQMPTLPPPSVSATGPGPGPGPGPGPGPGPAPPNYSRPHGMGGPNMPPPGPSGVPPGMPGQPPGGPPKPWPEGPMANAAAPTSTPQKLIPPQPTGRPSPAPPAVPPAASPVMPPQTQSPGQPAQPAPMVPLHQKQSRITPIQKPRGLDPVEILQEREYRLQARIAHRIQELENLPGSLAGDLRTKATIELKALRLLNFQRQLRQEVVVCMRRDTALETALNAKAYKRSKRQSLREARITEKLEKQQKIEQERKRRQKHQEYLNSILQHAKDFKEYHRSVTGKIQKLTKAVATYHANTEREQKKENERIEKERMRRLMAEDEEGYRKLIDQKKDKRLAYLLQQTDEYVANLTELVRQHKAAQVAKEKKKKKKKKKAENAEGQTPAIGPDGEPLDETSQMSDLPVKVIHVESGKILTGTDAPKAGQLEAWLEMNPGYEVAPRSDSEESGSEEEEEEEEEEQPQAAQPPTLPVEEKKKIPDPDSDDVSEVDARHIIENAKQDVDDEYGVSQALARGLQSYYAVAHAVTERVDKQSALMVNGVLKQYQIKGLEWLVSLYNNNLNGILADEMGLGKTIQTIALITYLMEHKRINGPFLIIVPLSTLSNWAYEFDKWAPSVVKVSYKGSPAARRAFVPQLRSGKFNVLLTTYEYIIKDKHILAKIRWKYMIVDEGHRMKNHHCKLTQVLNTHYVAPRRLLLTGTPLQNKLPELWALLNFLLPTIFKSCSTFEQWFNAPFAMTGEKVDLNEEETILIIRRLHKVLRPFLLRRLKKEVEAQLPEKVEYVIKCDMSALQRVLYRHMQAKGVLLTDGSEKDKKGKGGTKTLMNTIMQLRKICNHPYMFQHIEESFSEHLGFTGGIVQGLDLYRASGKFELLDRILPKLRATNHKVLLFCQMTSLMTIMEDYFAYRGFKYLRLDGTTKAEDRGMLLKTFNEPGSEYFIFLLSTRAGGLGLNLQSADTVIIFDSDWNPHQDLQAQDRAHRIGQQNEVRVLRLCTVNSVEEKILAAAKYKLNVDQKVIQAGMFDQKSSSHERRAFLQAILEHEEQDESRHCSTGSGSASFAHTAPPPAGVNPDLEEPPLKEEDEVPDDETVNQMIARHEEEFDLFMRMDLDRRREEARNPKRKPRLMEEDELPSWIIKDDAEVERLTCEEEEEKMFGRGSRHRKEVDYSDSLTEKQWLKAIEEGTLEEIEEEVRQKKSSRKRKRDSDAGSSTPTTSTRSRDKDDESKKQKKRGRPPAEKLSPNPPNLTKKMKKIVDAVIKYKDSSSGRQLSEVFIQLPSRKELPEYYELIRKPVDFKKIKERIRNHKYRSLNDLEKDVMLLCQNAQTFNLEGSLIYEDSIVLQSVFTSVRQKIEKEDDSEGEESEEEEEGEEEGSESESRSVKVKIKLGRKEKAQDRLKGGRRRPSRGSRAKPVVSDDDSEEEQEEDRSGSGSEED
# Sequence (P40337 whole entry, the tested form may be a part): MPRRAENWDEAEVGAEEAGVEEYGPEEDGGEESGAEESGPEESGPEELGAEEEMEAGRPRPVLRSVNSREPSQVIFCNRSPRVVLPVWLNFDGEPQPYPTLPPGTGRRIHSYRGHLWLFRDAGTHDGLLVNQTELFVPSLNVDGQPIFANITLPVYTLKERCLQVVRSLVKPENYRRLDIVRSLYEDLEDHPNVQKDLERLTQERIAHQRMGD

compound	censor_symbol	DC50, nM
Cc1ncsc1-c1ccc([C@H](C)NC(=O)[C@@H]2C[C@@H](O)CN2C(=O)[C@@H](NC(=O)CCN2CCC(CCCn3cc(-c4cc(-c5ccccc5O)nnc4N)cn3)CC2)C(C)C)cc1	>	1000
Cc1ncsc1-c1ccc([C@H](C)NC(=O)[C@@H]2C[C@@H](O)CN2C(=O)[C@@H](NC(=O)CCCCCCCCn2cc(-c3cc(-c4ccccc4O)nnc3N)cn2)C(C)(C)C)cc1	=	31
Cc1cc([C@H](C(=O)N2C[C@H](O)C[C@H]2C(=O)N[C@@H](CC(=O)NCCCCCCCCCCCCn2cc(-c3cc(-c4ccccc4O)nnc3N)cn2)c2ccc(-c3scnc3C)cc2)C(C)C)on1	=	90
Cc1ncsc1-c1ccc([C@@H](C)NC(=O)[C@H]2C[C@H](O)CN2C(=O)[C@H](NC(=O)C2CCC(N3CCC4(CCC(n5cc(-c6cc(-c7ccccc7O)nnc6N)cn5)CC4)CC3)CC2)C(C)(C)C)cc1 (single isomer, unassigned)	=	315
Cc1ncsc1-c1ccc([C@H](C)NC(=O)[C@@H]2C[C@@H](O)CN2C(=O)[C@@H](NC(=O)CCOCCOCCn2cc(-c3cc(-c4ccccc4O)nnc3N)cn2)C(C)C)cc1	>	1000

----------
# target_or_test_system: von Hippel-Lindau disease tumor suppressor/SWI/SNF-related matrix-associated actin-dependent regulator of chromatin subfamily A member 4 (Homo sapiens, UniProt P51532+P40337)
# assay_details: PROTAC activity at VHL/C-terminal HiBiT fused SMARCA4 in human HeLa cells assessed as induction of SMARCA4 degradation by measuring maximal efficacy incubated for 24 hrs by Nano-Glo HiBiT analysis relative to control
# Format: cell-based
# Sequence (P40337 whole entry, looked up, the tested form may be a part): as the sequence (P40337 whole entry, the tested form may be a part) above
# Sequence (P51532 whole entry, looked up, the tested form may be a part): as the sequence (P51532 whole entry, the tested form may be a part) above
Everything with Emax lower than 80% is criterion not met; everything else, including exactly 80%, is criterion met.

structure	group_label
Cc1ncsc1-c1ccc([C@H](C)NC(=O)[C@@H]2C[C@@H](O)CN2C(=O)[C@@H](NC(=O)CCCCCCCCCn2cc(-c3cc(-c4ccccc4O)nnc3N)cn2)C(C)(C)C)cc1	criterion met
Cc1ncsc1-c1ccc([C@H](C)NC(=O)[C@@H]2C[C@@H](O)CN2C(=O)[C@@H](NC(=O)CCCCCCCn2cc(-c3cc(-c4ccccc4O)nnc3N)cn2)C(C)(C)C)cc1	criterion met
Cc1cc([C@H](C(=O)N2C[C@H](O)C[C@H]2C(=O)N[C@@H](CC(=O)NCCCCCCCn2cc(-c3cc(-c4ccccc4O)nnc3N)cn2)c2ccc(-c3scnc3C)cc2)C(C)C)on1	criterion met
Cc1cc([C@H](C(=O)N2C[C@H](O)C[C@H]2C(=O)N[C@@H](CC(=O)NCCCCCCCCCCCCn2cc(-c3cc(-c4ccccc4O)nnc3N)cn2)c2ccc(-c3scnc3C)cc2)C(C)C)on1	criterion met
Cc1ncsc1-c1ccc([C@H](C)NC(=O)[C@@H]2C[C@@H](O)CN2C(=O)[C@@H](NC(=O)CCCCCn2cc(-c3cc(-c4ccccc4O)nnc3N)cn2)C(C)(C)C)cc1	criterion not met
Cc1ncsc1-c1ccc([C@H](C)NC(=O)[C@@H]2C[C@@H](O)CN2C(=O)[C@@H](NC(=O)CCN2CCC(CCCn3cc(-c4cc(-c5ccccc5O)nnc4N)cn3)CC2)C(C)C)cc1	criterion not met
Cc1ncsc1-c1ccc([C@H](C)NC(=O)[C@@H]2C[C@@H](O)CN2C(=O)[C@@H](NC(=O)CCn2cc(-c3cc(-c4ccccc4O)nnc3N)cn2)C(C)(C)C)cc1	criterion not met
Cc1ncsc1-c1ccc([C@H](CC[C@H](C)CCN2CCC(c3ccc4c(c3)n(C3CCCC3)c3nc(=O)c5c(Br)cccc5n43)CC2)NC(=O)[C@@H]2C[C@@H](O)CN2C(=O)[C@@H](NC(=O)C2(F)CC2)C(C)(C)C)cc1	criterion met
Cc1ncsc1-c1ccc([C@H](C)NC(=O)[C@@H]2C[C@@H](O)CN2C(=O)[C@@H](c2cc(N3CCC(CN4CCC(O[C@H]5C[C@H](Oc6cccc(CN7C8CCC7CN(c7cc(-c9ccccc9O)nnc7N)C8)c6)C5)CC4)CC3)no2)C(C)C)cc1	criterion met

----------
# target_or_test_system: von Hippel-Lindau disease tumor suppressor/SWI/SNF-related matrix-associated actin-dependent regulator of chromatin subfamily A member 4 (Homo sapiens, UniProt P51532+P40337)
# assay_details: PROTAC activity at VHL/C-terminal HiBiT fused SMARCA4 in human HeLa cells assessed as induction of SMARCA4 degradation incubated for 24 hrs by Nano-Glo HiBiT analysis
# Assay type: cell-based

structure	display_unit	censor_symbol	DC50
Cc1cc([C@H](C(=O)N2C[C@H](O)C[C@H]2C(=O)N[C@@H](CC(=O)NCCCCCCCn2cc(-c3cc(-c4ccccc4O)nnc3N)cn2)c2ccc(-c3scnc3C)cc2)C(C)C)on1	nM	=	91
Cc1ncsc1-c1ccc([C@H](C)NC(=O)[C@@H]2C[C@@H](O)CN2C(=O)[C@@H](NC(=O)CCCCCCCn2cc(-c3cc(-c4ccccc4O)nnc3N)cn2)C(C)(C)C)cc1	nM	=	23
Cc1cc([C@H](C(=O)N2C[C@H](O)C[C@H]2C(=O)N[C@@H](CC(=O)NCCCCCCn2cc(-c3cc(-c4ccccc4O)nnc3N)cn2)c2ccc(-c3scnc3C)cc2)C(C)C)on1	nM	=	213
Cc1ncsc1-c1ccc([C@H](C)NC(=O)[C@@H]2C[C@@H](O)CN2C(=O)[C@@H](NC(=O)COCCOCCOCCn2cc(-c3cc(-c4ccccc4O)nnc3N)cn2)C(C)C)cc1	nM	>	1000
Cc1ncsc1-c1ccc([C@H](C)NC(=O)[C@@H]2C[C@@H](O)CN2C(=O)[C@@H](NC(=O)CCCCCCCCCCn2cc(-c3cc(-c4ccccc4O)nnc3N)cn2)C(C)(C)C)cc1	nM	=	47
Cc1ncsc1-c1ccc([C@H](C)NC(=O)[C@@H]2C[C@@H](O)CN2C(=O)[C@@H](NC(=O)CCCCCCn2cc(-c3cc(-c4ccccc4O)nnc3N)cn2)C(C)(C)C)cc1	nM	=	212

----------
# assay_details: Antiproliferative activity against SMARCA4-deficient human NCI-H1568 cells assessed as cell growth inhibition measured after 7 days by WST-8 assay
# Assay type: functional
# run_conditions: NCI-H1568, 168 h, time 7 day
Catalogue of compounds with associated GI50
assay_readout: GI50 (nM)

structure	assay_readout	obs_value
Cc1ncsc1-c1ccc([C@H](C)NC(=O)[C@@H]2C[C@@H](O)CN2C(=O)[C@@H](NC(=O)[C@H]2CC[C@H](CN3CC4(CCC(n5cc(-c6cc(-c7ccccc7O)nnc6N)cn5)CC4)C3)CC2)C(C)(C)C)cc1	GI50	8.8
Cc1ncsc1-c1ccc([C@H](CC[C@H](C)CCN2CCC(c3ccc4c(c3)n(C3CCCC3)c3nc(=O)c5c(Br)cccc5n43)CC2)NC(=O)[C@@H]2C[C@@H](O)CN2C(=O)[C@@H](NC(=O)C2(F)CC2)C(C)(C)C)cc1	GI50	2.8
Cc1ncsc1-c1ccc([C@H](C)NC(=O)[C@@H]2C[C@@H](O)CN2C(=O)[C@@H](c2cc(N3CCC(CN4CCC(O[C@H]5C[C@H](Oc6cccc(CN7C8CCC7CN(c7cc(-c9ccccc9O)nnc7N)C8)c6)C5)CC4)CC3)no2)C(C)C)cc1	GI50	0.3
Cc1ncsc1-c1ccc([C@H](C)NC(=O)[C@@H]2C[C@@H](O)CN2C(=O)[C@@H](NC(=O)CCCCCCCCCn2cc(-c3cc(-c4ccccc4O)nnc3N)cn2)C(C)(C)C)cc1	GI50	2.5

----------
# target_or_test_system: von Hippel-Lindau disease tumor suppressor/SWI/SNF-related matrix-associated actin-dependent regulator of chromatin subfamily A member 4 (Homo sapiens, UniProt P51532+P40337)
# assay_details: PROTAC activity at VHL/C-terminal HiBiT fused SMARCA4 in human HeLa cells assessed as induction of SMARCA4 degradation by measuring maximal efficacy incubated for 24 hrs by Nano-Glo HiBiT analysis relative to control
# Type: cell-based
assay_readout: Emax (%)

compound	obs_value
Cc1ncsc1-c1ccc([C@H](C)NC(=O)[C@@H]2C[C@@H](O)CN2C(=O)[C@@H](NC(=O)C2CCC(N3CC4(CCC(n5cc(-c6cc(-c7ccccc7O)nnc6N)cn5)CC4)C3)CC2)C(C)(C)C)cc1 (stereo not given in full)	55
Cc1cc([C@H](C(=O)N2C[C@H](O)C[C@H]2C(=O)N[C@@H](CC(=O)NCCCCCCCCCn2cc(-c3cc(-c4ccccc4O)nnc3N)cn2)c2ccc(-c3scnc3C)cc2)C(C)C)on1	94
Cc1cc([C@H](C(=O)N2C[C@H](O)C[C@H]2C(=O)N[C@@H](CC(=O)NCCCCCCCCCCn2cc(-c3cc(-c4ccccc4O)nnc3N)cn2)c2ccc(-c3scnc3C)cc2)C(C)C)on1	93
Cc1ncsc1-c1ccc([C@H](C)NC(=O)[C@@H]2C[C@@H](O)CN2C(=O)[C@@H](NC(=O)COCCOCCOCCn2cc(-c3cc(-c4ccccc4O)nnc3N)cn2)C(C)C)cc1	47
Cc1cc([C@H](C(=O)N2C[C@H](O)C[C@H]2C(=O)N[C@@H](CC(=O)NCCCCCCCCn2cc(-c3cc(-c4ccccc4O)nnc3N)cn2)c2ccc(-c3scnc3C)cc2)C(C)C)on1	93

Source: ChEMBL document CHEMBL5325488
